- System: RPMI-8226 leukemia
- Assay Info: NCI tumour cell line growth inhibition, 48 h
Outcome Measure: TGI (µM)

[[record]]
compound = "O=C1c2cccc(NCCN=Cc3cc([N+](=O)[O-])ccc3O)c2C(=O)c2c(NCCN=Cc3cc([N+](=O)[O-])ccc3O)cccc21"
outcome_measure = "TGI"
measurement_unit = "µM"
sign = "="
measured_number = 4.35

[[record]]
compound = "c1ccc(CN2CCC3(CC2)SSC2(CCN(Cc4ccccc4)CC2)S3)cc1"
outcome_measure = "TGI"
measurement_unit = "µM"
sign = "="
measured_number = 98.4

[[record]]
compound = "S=C1N(/N=C/c2c3ccccc3cc3ccccc23)C(=Nc2ccccc2)C(=Nc2ccccc2)N1c1ccccc1"
outcome_measure = "TGI"
measurement_unit = "µM"
sign = ">"
measured_number = 100

[[record]]
compound = "COC(=O)/C(=N\\NC(=O)C[N+](C)(C)C)C(C(=O)OC)C(=O)C(=O)Nc1ccccc1C(N)=O (configuration not stated)"
outcome_measure = "TGI"
measurement_unit = "µM"
sign = ">"
measured_number = 100

[[record]]
compound = "COC(=O)CNS(=O)(=O)c1ccc(-c2c3nc(c(-c4ccc(S(=O)(=O)NCC(=O)OC)cc4)c4ccc([nH]4)c(-c4ccc(S(=O)(=O)NCC(=O)OC)cc4)c4nc(c(-c5ccc(S(=O)(=O)NCC(=O)OC)cc5)c5ccc2[nH]5)C=C4)C=C3)cc1"
outcome_measure = "TGI"
measurement_unit = "µM"
sign = ">"
measured_number = 100

[[record]]
compound = "CCOC(=O)c1nc2ccccc2nc1NCc1cc(OC)c(OC)c(OC)c1"
outcome_measure = "TGI"
measurement_unit = "µM"
sign = ">"
measured_number = 100

[[record]]
compound = "Nc1cccc(/C=C/C(=O)N2CCN(CCOC(c3ccccc3)c3ccccc3)CC2)c1"
outcome_measure = "TGI"
measurement_unit = "µM"
sign = "="
measured_number = 26.7


* * *

- Tested on: A549 NSCLC
- Assay Info: NCI tumour cell line growth inhibition, 48 h; in the data active = GI50 below about 0.43 µM; inactive = the rest
Outcome codes: active, inactive

[[record]]
compound = "NC(=O)c1c(NC(=O)c2ccccn2)sc2c1CCC(=O)C2"
tested_target = "A549 NSCLC"
group_label = "inactive"

[[record]]
compound = "COc1cc2c(cc1O)CC[C@@H]1[C@@H]2CC[C@]2(C)[C@@H](OCCN(C)C)CC[C@@H]12"
tested_target = "A549 NSCLC"
group_label = "active"

[[record]]
compound = "COc1cc(Nc2c(C#N)cnc3cc(OCCCN4CCN(C)CC4)c(OC)cc23)c(Cl)cc1Cl"
tested_target = "A549 NSCLC"
group_label = "inactive"

[[record]]
compound = "O=C(Cn1c(=O)c(-c2ccccc2)nc2ccccc21)Nc1ccc(F)cc1"
tested_target = "A549 NSCLC"
group_label = "inactive"

[[record]]
compound = "O=c1ccn(C2CC(O)C(CO)O2)c(=O)[nH]1 (stereo not given)"
tested_target = "A549 NSCLC"
group_label = "inactive"

[[record]]
compound = "COc1cccc([C@H]2C/C(=N\\NC(=O)C(=O)N[C@@H](C)c3ccccc3)c3ccccc3N2)c1"
tested_target = "A549 NSCLC"
group_label = "active"

[[record]]
compound = "Cc1cc(C(=C2C=CC(=Nc3ccccc3)C=C2)c2ccc(Nc3ccccc3)cc2)ccc1N"
tested_target = "A549 NSCLC"
group_label = "inactive"

[[record]]
compound = "CCC(C)[C@H]1O[C@]2(C=C[C@@H]1C)C[C@@H]1C[C@@H](C/C=C(\\C)[C@@H](OC3C[C@H](OC)C(O[C@H]4C[C@H](OC)[C@@H](O)[C@H](C)O4)[C@H](C)O3)[C@@H](C)/C=C/C=C3\\CO[C@@H]4[C@H](O)C(C)=C[C@@H](C(=O)O1)[C@]34O)O2 (stereo not given in full)"
tested_target = "A549 NSCLC"
group_label = "inactive"

[[record]]
compound = "C1COCCN1.C1COCCN1.NC1CCCCC1N.[Cl-].[Pt+2] (stereo not given)"
tested_target = "A549 NSCLC"
group_label = "inactive"

[[record]]
compound = "CN[C@H](C#Cc1c(F)ccc2c1/C(=C/c1[nH]ccc1OC)C(=O)N2)CO"
tested_target = "A549 NSCLC"
group_label = "active"

[[record]]
compound = "CN1CCN(CCOc2ccc(-c3cnc4c(-c5ccc(C(F)(F)F)cc5)cnn4c3)cc2)CC1"
tested_target = "A549 NSCLC"
group_label = "inactive"

[[record]]
compound = "C=C1/C(=C\\C=C2/CCC[C@]3(C)[C@@H]([C@H](C)CCCC(C)(C)O)CC[C@@H]23)C[C@@H](OC(=O)CBr)C[C@@H]1O"
tested_target = "A549 NSCLC"
group_label = "inactive"

[[record]]
compound = "COc1ccc(-c2nc(-c3ccccc3)c(-c3ccccc3)[nH]2)cc1OC1CCCC1"
tested_target = "A549 NSCLC"
group_label = "inactive"

[[record]]
compound = "O=C(Nc1ccncc1)C(=O)c1cn(Cc2ccc(Cl)cc2)c2ccccc12"
tested_target = "A549 NSCLC"
group_label = "active"

[[record]]
compound = "COC1=CC(c2ccc[nH]2)=N/C1=C\\c1[nH]c(C)c(C(=O)CCCCC(=O)NC(C)(C)C)c1C"
tested_target = "A549 NSCLC"
group_label = "inactive"

